# SYSTEM TESTED: ROCK2 (Homo sapiens)
# Sequence (O75116 whole entry, species assumed): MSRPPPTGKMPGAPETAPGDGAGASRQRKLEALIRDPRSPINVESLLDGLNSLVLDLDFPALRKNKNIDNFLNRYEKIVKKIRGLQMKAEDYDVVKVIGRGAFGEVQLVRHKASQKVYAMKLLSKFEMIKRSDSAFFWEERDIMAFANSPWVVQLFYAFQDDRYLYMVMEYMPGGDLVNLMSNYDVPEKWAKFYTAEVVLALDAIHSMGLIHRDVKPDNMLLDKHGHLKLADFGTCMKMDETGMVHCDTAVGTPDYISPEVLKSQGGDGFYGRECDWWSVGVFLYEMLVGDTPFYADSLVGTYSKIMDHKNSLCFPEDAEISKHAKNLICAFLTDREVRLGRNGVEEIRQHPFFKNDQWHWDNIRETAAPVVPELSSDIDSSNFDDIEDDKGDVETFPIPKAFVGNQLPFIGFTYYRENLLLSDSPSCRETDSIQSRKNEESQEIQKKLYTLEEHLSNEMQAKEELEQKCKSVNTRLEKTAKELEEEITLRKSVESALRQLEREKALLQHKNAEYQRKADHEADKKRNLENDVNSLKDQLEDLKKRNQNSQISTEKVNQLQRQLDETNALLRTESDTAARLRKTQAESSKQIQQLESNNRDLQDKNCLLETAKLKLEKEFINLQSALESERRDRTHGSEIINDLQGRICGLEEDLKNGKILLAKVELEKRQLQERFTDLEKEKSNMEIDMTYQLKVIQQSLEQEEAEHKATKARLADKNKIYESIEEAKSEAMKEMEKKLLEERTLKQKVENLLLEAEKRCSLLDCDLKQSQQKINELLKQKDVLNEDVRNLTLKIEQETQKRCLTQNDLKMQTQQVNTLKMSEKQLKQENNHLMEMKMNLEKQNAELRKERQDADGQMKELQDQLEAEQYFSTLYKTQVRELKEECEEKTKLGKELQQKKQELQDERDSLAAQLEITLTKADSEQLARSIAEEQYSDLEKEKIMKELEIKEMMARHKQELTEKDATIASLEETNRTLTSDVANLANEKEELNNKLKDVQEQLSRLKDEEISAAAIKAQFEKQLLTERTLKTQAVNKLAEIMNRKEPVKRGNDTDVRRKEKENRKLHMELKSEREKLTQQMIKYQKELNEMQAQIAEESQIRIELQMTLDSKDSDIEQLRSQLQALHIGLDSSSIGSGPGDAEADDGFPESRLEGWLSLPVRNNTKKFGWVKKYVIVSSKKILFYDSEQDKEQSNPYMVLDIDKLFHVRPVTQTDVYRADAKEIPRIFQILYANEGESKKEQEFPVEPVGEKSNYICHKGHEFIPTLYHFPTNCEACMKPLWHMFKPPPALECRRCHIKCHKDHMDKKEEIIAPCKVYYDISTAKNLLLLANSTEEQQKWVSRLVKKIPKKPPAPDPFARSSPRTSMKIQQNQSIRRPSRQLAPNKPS
Structures can show the parent of a compound that is named as a salt.
IC50 listing for selected compounds.

Example compounds with recorded IC50:
# COMPOUND, IC50
records = [
    ("[H][C@]1(c2n[nH]c(=O)c3ccccc32)C[C@]2(C[C@@H](NC(=O)c3cnc4c(Cl)c(C)ccn34)C2)C1 (stereo partly drawn)", "2.01 to 5 nM"),
    ("O=C(N[C@H]1CC2(C1)C[C@H](c1n[nH]c(=O)c3ccccc31)C2)c1cnc2cc(N3CCOCC3)ccn12 (stereo partly drawn) [Example 470, TFA]", "0.2 to 2 nM"),
]

In the following, a different compound is considered.
Exercise: Look up IC50 with ROCK2 (Homo sapiens) for this compound: [H][C@]1(c2n[nH]c(=O)c3ccccc32)C[C@]2(C[C@@H](NC(=O)c3cc4cccc(C(F)(F)F)c4[nH]3)C2)C1 (stereo partly drawn)
Key: 0.2 to 2 nM

src = patent US9902702B2
